Tested on: HepG2
Test: Single-exposure toxicity, Hoechst/DRAQ7 live cell number, HepG2
Conditions: Homo sapiens, HepG2, read-out: IC50 single exposure, Mean, HepG2 AAGLY D40
Let's look at some compounds and their measured pIC50.
Lab note: report pIC50 as minus log10 of the concentration in molar units, number only.

COMPOUND | pIC50
CC(=O)Nc1ccc(O)cc1 [APAP, acetaminophen] | 1.92

Let us examine a further case.
// field: pIC50; key: C=C(C)[C@H]1Cc2c(ccc3c2O[C@@H]2COc4cc(OC)c(OC)cc4[C@@H]2C3=O)O1 [rotenone] ; value = 8.60

----------
Test system: HC3X
Assay: Repeated-exposure DILI training compounds, resazurin conversion, HC3X
Conditions: human
ASSAY METRIC: IC50/Cmax
Reply: number alone, nothing else.

COMPOUND | IC50/Cmax
COc1ccccc1Oc1c(NS(=O)(=O)c2ccc(C(C)(C)C)cc2)nc(-c2ncccn2)nc1OCCO | 20.81
CCc1nn(CCCN2CCN(c3cccc(Cl)c3)CC2)c(=O)n1CCOc1ccccc1 | 12.43
CCOC(=O)CN[C@@H](C(=O)N1CC[C@H]1C(=O)NCc1ccc(/C(N)=N\O)cc1)C1CCCCC1 | 2438.67
Cc1ccc(C(=O)c2cc(O)c(O)c([N+](=O)[O-])c2)cc1 | 0.83
O=C1CC2(CCCC2)CC(=O)N1CCCCN1CCN(c2ncccn2)CC1 | 120200
Cc1c(C)c2c(c(C)c1O)CCC(C)(COc1ccc(CC3SC(=O)NC3=O)cc1)O2 (stereo not shown) | 1.6

// field: IC50/Cmax; key: C1CCC(C(CC2CCCCN2)C2CCCCC2)CC1 (stereo not shown) ; value = 0.58

----------
Test system: HLCs
Test: Single-exposure toxicity, Hoechst/DRAQ7 live cell number, HLCs
Conditions: Homo sapiens, read-out: IC50 single exposure, Mean
ASSAY METRIC: pIC50
Lab note: report pIC50 as minus log10 of the concentration in molar units, number only.

# lookup: `C=C(C)[C@H]1Cc2c(ccc3c2O[C@@H]2COc4cc(OC)c(OC)cc4[C@@H]2C3=O)O1` on HLCs, pIC50 = 8.27
